Data origin, for the record: PubChem BioAssay (NCI)

Tested on: BT-549 breast
run description: NCI-60 one-dose screen, 48 h (100 = growth as untreated, 0 = no growth, -100 = all killed)
setup conditions: 10 µM unless noted
About 83,000 compounds went through this panel and 20% of them were active in at least one assay; those are over-represented in the sample as a whole.
measured property: growth (%)
Give bare numbers, in %.

O=C(Nc1nc(Cl)nc(Nc2ccc(N3CCOCC3=O)cc2)n1)c1ccc(Cl)s1 ... 106
CN(C)c1ccc(/C=C2\C=C(c3nc4ccccc4s3)OC2=O)cc1 ... 110
CN1CCN(c2ccc(NC3=CC(=O)c4ncncc4C3=O)cc2)CC1 ... -90.9
COc1cc2c(c(OC)c1OC)CCC(c1cccc(C(=O)Nc3ccc(Br)cc3)c1)O2 (stereo not given) ... 69

Here is another compound to look at.
[in] Look up growth with BT-549 breast for this compound: COc1cc2c(c(OC)c1OC)C(=O)CC(c1cccc(C(=O)Nc3ccc(C#N)cc3)c1)O2 (stereo not given)
[out] 33

----------
Test system: NCI/ADR-RES ovarian
run description: NCI-60 one-dose screen, 48 h
setup conditions: 10 µM unless noted
This is part of a sample that, as a whole, favours compounds with a hit. Of some 83,000 tested, about 20% had one in any assay. The source made the active and inactive calls. How the source made its calls: active means growth percent below 10; inactive means the rest.
Pick one and only one: T = active, F = inactive

Consider the following illustrative entries.
COc1cc([C@@H](CCO)C[C@H](C)c2ccc3ccccc3c2)cc(OC)c1OC ... F
O=S(=O)(NCCNc1nccc(-c2c(-c3ccc(F)c(O)c3)nc3sccn23)n1)c1ccc(Cl)cc1 ... F
CNC(=O)c1cc(Oc2ccc3c(c2)sc2nc(-c4cc(C(F)(F)F)cc(C(F)(F)F)c4)cn23)ccn1 ... F
COC(=O)c1nc(-c2ccccc2)oc1S(=O)(=O)N1CCCC(C)C1 (stereo not given) ... F

[in] What did this assay record as the result for O=C(Nc1ncc(Cc2ccccc2)s1)c1sc2ccccc2c1Cl ?
[out] F

[in] Assay result, entry O=C(Nc1ccc(Oc2cccc(Cl)c2)c(Cl)c1)c1cccnn1 — outcome?
[out] F

[in] Test call for this compound, please: Cc1cc(O)c(=O)cc2c1C[C@H]1CC(C)(C)/C=C/C[C@]3(C)Oc4cc(=O)c(O)cc(C)c4C[C@H]3C[C@H](O)[C@@]1(C)O2
[out] T

[in] Hi, sorry to bother you, what did the test record for O=C1OCC2=C1C(c1ccccc1)c1cc3c(cc1N2CCO)OCCO3 (stereo not given) ?
[out] T

[in] Fill in: this test's call for CS(=O)(=O)c1ccc(-c2nc3ccccc3n2CC(=O)N/N=C/c2ccccc2)cc1 is ___
[out] F

[in] Returns: the outcome recorded for COc1ccc(Cl)cc1Nc1nc(C(F)(F)F)ccc1C(=O)N/N=C/c1ccc([N+](=O)[O-])cc1 in this assay.
[out] T

----------
Tested on: HCT-116 colon
run description: NCI-60 one-dose screen, 48 h (100 = growth as untreated, 0 = no growth, -100 = all killed)
setup conditions: 10 µM unless noted
About 83,000 compounds went through this panel and 20% of them were active in at least one assay; those are over-represented in the sample as a whole.
Task for the reader: assign each of the following compounds its reported growth.
Numbers only, in %.

Batch lookup, growth per entry.
1. O=c1oc2ccccc2cc1-c1nn(-c2ccccc2)cc1-c1nn[nH]n1
2. O=C(OCc1ccc2c(Cl)cc(Cl)c(O)c2n1)N1CCN(C(=O)c2cc3ccccc3[nH]2)CC1
3. Nc1nc(N)c2c(n1)NC(c1cccc(Nc3ccnc4cc(C(F)(F)F)ccc34)c1)CC(c1ccc3c(c1)OCO3)=N2 (stereo not drawn)

[out]
[96.5, 20.3, 39.9]

----------
System: SF-539 CNS
run description: NCI-60 one-dose screen, 48 h
setup conditions: 10 µM unless noted
Compounds without any hit were thinned out: in the full panel of roughly 83,000, 20% have a hit. Calls of active or inactive are those of the source. The calls were made as follows: active = growth percent below 10; inactive = the rest.
Write down the outcome that applies. Available outcomes: Yes (active), No (inactive)

c1csc(-c2cn3nc(-c4c[nH]c5ccccc45)sc3n2)c1 ... Yes
COc1ccc(C=Nc2c(C(=O)Nc3cccc(Cl)c3C)sc3nc(C)c(C(=O)/C=C/c4ccc(OC)cc4)cc23)cc1 ... Yes

[in] Which outcome did this test record for the compound CCOC(=O)c1c(C)nc2c(c1N)C(=O)C(=O)N2Cc1ccc(OC)cc1 ?
[out] No

[in] Call for entry CC1=C2CC/C(C)=C/CC[C@]3(C)O[C@H]3CC/C(C)=C/[C@H]2OC1 :
[out] No

[in] Field: outcome | Entry: COc1cc(Cc2cc(-c3ccccc3)nn(Cc3ccccc3)c2=O)cc(OC)c1OC
[out] No

[in] Would you mind telling me which call this test gave COc1ccc(C(=O)C/C(=C\c2ccc(O)c(OC)c2)C(=O)NN)cc1 ?
[out] No

[in] Assay outcome for CN(C)CCC(CCN(C)C)(C(=O)O)c1ccccc1 : what was it?
[out] No

[in] // return assay outcome for Cc1cccc(N2C(=O)/C(=C/C(Cl)=C/c3ccc([N+](=O)[O-])cc3)SC2=S)c1C
[out] Yes

[in] Field: outcome | Entry: [N-]=[N+]=NCC1OC(n2cnc3c(NC(=O)Nc4ccccc4)ncnc32)C2OC(=O)CC12 (stereo not drawn)
[out] No

[in] Kindly provide the recorded test outcome for the following compound: COC(=O)[C@@]12CC=C(C)[C@]3(C[C@H](c4ccoc4)OC3=O)[C@H]1C=C[C@@H](O)[C@@]2(O)C(=O)OC
[out] No

[in] State the result this test recorded for Cc1ccc(S(=O)(=O)OCC#CCOS(=O)(=O)c2ccc(C)cc2)cc1 .
[out] No

[in] Check the results log: what was the call for Nc1c(C(=O)Nc2cccc3ncccc23)sc2nc3c(cc12)CN(Cc1ccccc1)CC3 ?
[out] No

[in] Give the logged outcome of this assay for the following compound: COc1ccc(-c2cc(C(=O)N3N=C(c4ccc(N)cc4)CC3c3ccc(Cl)cc3)c3ccccc3n2)cc1 (stereo not drawn)
[out] Yes

[in] Identify the outcome logged in this assay for the compound shown: CCCCCCCCn1ccc2cc(NC(=O)CN3CCN(c4cc(C)nc(Cl)n4)CC3)ccc21
[out] No

[in] Which outcome was entered for the compound O=C(/C=C/C12c3ccccc3C(c3ccccc31)C1C(=O)NC(=O)C12)c1ccc(I)cc1 (stereo not drawn) in this test?
[out] No

[in] Per the assay record, what outcome was assigned to O=C(Nc1ccccc1O)c1ccc(CNc2ccnc(C(F)(F)F)c2)cc1 ?
[out] No

[in] Assay result, entry C/C(=N\Nc1ccccc1)c1ccc(NC2=CC(=O)c3ccccc3C2=O)cc1 — outcome?
[out] No

[in] Just curious, what result did Nc1[nH]nc2nc(-c3ccccc3)n3c4ccccc4nc3c12 get here?
[out] No

[in] Recorded test call requested for N#Cc1c(-c2cccc(Cl)c2)cc(-c2cccnc2)[nH]c1=O
[out] No

[in] Dear colleague, could you share the recorded outcome for COc1ccc(-c2cc(-c3cn(-c4cccc(Cl)c4)nc3-c3ccc(OC)cc3)on2)cc1 when you have a moment?
[out] No

----------
System: NCI-H322M lung
run description: NCI-60 one-dose screen, 48 h (100 = growth as untreated, 0 = no growth, -100 = all killed)
setup conditions: 10 µM unless noted
About 83,000 compounds went through this panel and 20% of them were active in at least one assay; those are over-represented in the sample as a whole.
Quick rule for you: growth under 70% gets Satisfied, anything else gets Not satisfied.

# count of solved cases: 5
COc1cc(-c2ccc(-c3ccc(C(=N)N)cc3)s2)cc(OC)c1OC ... Not satisfied
O=C(Cc1ccc(/C=C/C(=O)c2ncc[nH]2)cc1)Nc1cc(F)c(F)c(F)c1 ... Not satisfied
COc1ccc(C/C(C)=C(\c2ccc(O)cc2)c2ccc(OCCN3CCCCC3)cc2)cc1 ... Not satisfied
CC(=O)c1ccc(-n2cc(CN3CCN(c4cc5c(cc4F)c(=O)c(C(=O)O)cn5C4CC4)CC3)nn2)cc1 ... Not satisfied
CN(C)CCC(CCN(C)C)(C(=O)O)c1ccccc1 ... Not satisfied

[in] Strictly below 70% in growth? CC(C)(C)c1ccc(C(=O)N/N=C/c2ccc(O)cc2O)cc1
[out] Satisfied

[in] Determine if CCOC(=O)c1cn2ncnc(Oc3ccc(NC(=O)NC4CC4)c(Cl)c3)c2c1C shows growth strictly lower than 70%.
[out] Not satisfied

[in] Lab log: compare recorded growth with 70%; is it strictly lower for COC12C=C/C(=C(/C(=O)OCc3cncnc3)C(=O)CCCCCCCCC3(OC)C=C/C(=C(/C(=O)OCc4cncnc4)C(=O)CCCCCCCC1)O3)O2 ?
[out] Satisfied

[in] In the record for CCN(CC)CCOc1ccc(Nc2ncc3cc(-c4c(Cl)cccc4Cl)c(=O)n(CCOC)c3n2)cc1 , is growth less than 70%?
[out] Satisfied

[in] Is growth strictly under 70% for the entry O=C(NCCCCO)c1cncnc1Nc1ccc2c(ccn2Cc2cccc(F)c2)c1 ?
[out] Not satisfied

[in] Determine whether this compound shows growth lower than 70% (ties excluded): CCOC(=O)c1c(C)nc2ccccc2c1/C=C/c1ccc(F)cc1
[out] Not satisfied

[in] hey, is growth for COc1ccc(C(=O)Nc2ncc(Cc3ccc(Cl)cc3)s2)cc1 lower than 70% or not?
[out] Satisfied

[in] Please let me know if CCCCn1c(NC(C)=O)c(S(=O)(=O)c2ccccc2)c2nc3ccccc3nc21 shows growth below 70%.
[out] Not satisfied

[in] For this compound, is growth lower than 70%? Cn1c(=O)[nH]c(=O)c2nc3c(nc21)-c1ccccc1C3=O
[out] Not satisfied

[in] Please check: growth for Cc1ccc(OCCOCCOCCOCCOCCOc2ccc(C)n(O)c2=S)c(=S)n1O , strictly under 70% or not?
[out] Satisfied

[in] Decide: growth of COc1cc(C=C2C(=O)NC(=S)NC2=O)cc(CN2CCCC2)c1O strictly below 70%?
[out] Not satisfied

[in] Please indicate whether the reported growth of COc1cccc(CNc2c3ccccc3nc3ccccc23)c1OC is strictly below 70%.
[out] Satisfied

[in] Record COc1cc2ncnc(Nc3ccc(S(=O)(=O)Nc4nccs4)cc3)c2cc1OCCCN1CCCC1 : is its growth strictly below 70%?
[out] Not satisfied

[in] Does the reported growth of O=C(Nc1ccccc1O)c1ccc(CNc2ccnc(C(F)(F)F)c2)cc1 stay below 70%?
[out] Satisfied

[in] Check if growth falls below 70% for CCOC(=O)c1c(C)nc2c(c1N)C(=O)C(=O)N2Cc1ccc(OC)cc1 .
[out] Not satisfied
